Data provenance: ChEMBL document CHEMBL1629510

The following molecules are listed with their measured Activity values.
Species on record: Capra hircus
EXPERIMENT: Induction of magnesium independent calcium-transporting ATPase activity in goat spermatozoa microsomal membranes at 20 ug by spectrophotometry in presence of 1 mM of calcium channel blocker orthovanadate
Type: microsomes
ASSAY_SETUP: Microsome
In your response, the unit should come after the numeric value.

> print(dat)
                               given.smiles  result
1  CO[C@H]1O[C@H](CS(=O)(=O)C[C@H]2O[C@H](OC)[C@H](O)[C@H](O)[C@@H]2O)[C@@H](O)[C@H](O)[C@H]1O    -17%
2  CO[C@H]1O[C@H](CS(=O)(=O)C[C@H]2O[C@@H](OC)[C@H](O)[C@H](O)[C@@H]2O)[C@@H](O)[C@H](O)[C@@H]1O    -19%
3  CO[C@H]1O[C@H](CS(=O)(=O)C[C@H]2O[C@H](OC)[C@H](O)[C@@H](O)[C@@H]2O)[C@@H](O)[C@H](O)[C@@H]1O      4%
4  CO[C@H]1O[C@H](CS(=O)(=O)C[C@H]2O[C@H](OC)[C@H](O)[C@@H](O)[C@H]2O)[C@@H](O)[C@H](O)[C@@H]1O    -25%

Lab note: next molecule to report on.
Form field Activity, entry `CO[C@@H]1O[C@H](CS(=O)(=O)C[C@H]2O[C@@H](OC)[C@H](O)[C@H](O)[C@@H]2O)[C@@H](O)[C@@H](O)[C@H]1O` : -21%

###

Organism: Capra hircus
EXPERIMENT: Induction of magnesium independent calcium-transporting ATPase activity in goat spermatozoa microsomal membranes at 70 nM by spectrophotometry
Type: microsomes
ASSAY_SETUP: Microsome
The following molecules are listed with their measured Activity values.
# number only, unit % dropped from output

Answered examples (3):
> print(dat)
                               given.smiles  result.type  output.unit  numeric.readout
1  CO[C@H]1O[C@H](CS(=O)(=O)C[C@H]2O[C@H](OC)[C@H](O)[C@@H](O)[C@@H]2O)[C@@H](O)[C@H](O)[C@H]1O     Activity            %               36
2  CO[C@H]1O[C@H](CS(=O)(=O)C[C@H]2O[C@H](OC)[C@@H](O)[C@@H](O)[C@@H]2O)[C@@H](O)[C@H](O)[C@@H]1O     Activity            %               49
3  CO[C@H]1O[C@H](CS(=O)(=O)C[C@H]2O[C@H](OC)[C@H](O)[C@@H](O)[C@H]2O)[C@@H](O)[C@H](O)[C@@H]1O     Activity            %               53

Form field Activity, entry `CO[C@H]1O[C@H](CS(=O)(=O)C[C@H]2O[C@H](OC)[C@H](O)[C@@H](O)[C@@H]2O)[C@@H](O)[C@H](O)[C@@H]1O` : 43

Form field Activity, entry `CO[C@H]1O[C@H](CS(=O)(=O)C[C@H]2O[C@H](OC)[C@H](O)[C@@H](O)[C@H]2O)[C@@H](O)[C@H](O)[C@H]1O` : 32

Form field Activity, entry `CO[C@H]1O[C@H](CS(=O)(=O)C[C@H]2O[C@H](OC)[C@H](O)[C@H](O)[C@@H]2O)[C@@H](O)[C@H](O)[C@H]1O` : 30

Form field Activity, entry `CO[C@H]1O[C@H](CS(=O)(=O)C[C@H]2O[C@@H](OC)[C@H](O)[C@H](O)[C@@H]2O)[C@@H](O)[C@H](O)[C@@H]1O` : 45

Form field Activity, entry `CO[C@@H]1O[C@H](CS(=O)(=O)C[C@H]2O[C@@H](OC)[C@H](O)[C@H](O)[C@@H]2O)[C@@H](O)[C@@H](O)[C@H]1O` : 30

###

Species: Capra hircus
EXPERIMENT: Induction of magnesium independent calcium-transporting ATPase activity in goat spermatozoa microsomal membranes at 20 ug by spectrophotometry in presence of 300 uM of calcium channel blocker verapamil
Format: microsomes
ASSAY_SETUP: Microsome
RESULT_TYPE: Activity (%)
# number only, unit % dropped from output

Answered examples (7):
> print(dat)
                               given.smiles  result.type  numeric.readout
1  CO[C@H]1O[C@H](CS(=O)(=O)C[C@H]2O[C@H](OC)[C@H](O)[C@@H](O)[C@@H]2O)[C@@H](O)[C@H](O)[C@@H]1O     Activity               -3
2  CO[C@H]1O[C@H](CS(=O)(=O)C[C@H]2O[C@H](OC)[C@H](O)[C@H](O)[C@@H]2O)[C@@H](O)[C@H](O)[C@H]1O     Activity               -9
3  CO[C@H]1O[C@H](CS(=O)(=O)C[C@H]2O[C@H](OC)[C@H](O)[C@@H](O)[C@@H]2O)[C@@H](O)[C@H](O)[C@H]1O     Activity              -14
4  CO[C@H]1O[C@H](CS(=O)(=O)C[C@H]2O[C@H](OC)[C@H](O)[C@@H](O)[C@H]2O)[C@@H](O)[C@H](O)[C@@H]1O     Activity              -21
5  CO[C@@H]1O[C@H](CS(=O)(=O)C[C@H]2O[C@@H](OC)[C@H](O)[C@H](O)[C@@H]2O)[C@@H](O)[C@@H](O)[C@H]1O     Activity               -8
6  CO[C@H]1O[C@H](CS(=O)(=O)C[C@H]2O[C@@H](OC)[C@H](O)[C@H](O)[C@@H]2O)[C@@H](O)[C@H](O)[C@@H]1O     Activity               -5
7  CO[C@H]1O[C@H](CS(=O)(=O)C[C@H]2O[C@H](OC)[C@@H](O)[C@@H](O)[C@@H]2O)[C@@H](O)[C@H](O)[C@@H]1O     Activity               -2

Lab note: next compound to report on.
Form field Activity, entry `CO[C@H]1O[C@H](CS(=O)(=O)C[C@H]2O[C@H](OC)[C@H](O)[C@@H](O)[C@H]2O)[C@@H](O)[C@H](O)[C@H]1O` : -5

###

Species on record: Capra hircus
EXPERIMENT: Induction of magnesium independent calcium-transporting ATPase activity in goat spermatozoa microsomal membranes at 20 ug by spectrophotometry in presence of 1 mM of calcium channel blocker orthovanadate
Type: microsomes
ASSAY_SETUP: Microsome
RESULT_TYPE: Activity (%)
# number only, unit % dropped from output

> print(dat)
                               given.smiles  output.unit  numeric.readout
1  CO[C@H]1O[C@H](CS(=O)(=O)C[C@H]2O[C@H](OC)[C@H](O)[C@@H](O)[C@@H]2O)[C@@H](O)[C@H](O)[C@H]1O            %              -24
2  CO[C@H]1O[C@H](CS(=O)(=O)C[C@H]2O[C@H](OC)[C@H](O)[C@@H](O)[C@H]2O)[C@@H](O)[C@H](O)[C@H]1O            %               -8

Lab note: next compound to report on.
Form field Activity, entry `CO[C@H]1O[C@H](CS(=O)(=O)C[C@H]2O[C@H](OC)[C@@H](O)[C@@H](O)[C@@H]2O)[C@@H](O)[C@H](O)[C@@H]1O` : -27

###

Species: Capra hircus
EXPERIMENT: Induction of magnesium independent calcium-transporting ATPase activity in goat spermatozoa microsomal membranes at 20 ug by spectrophotometry in presence of […] of calcium channel blocker thapsigargin
Assay type: microsomes
ASSAY_SETUP: Microsome
Given measured Activity, output yes if it is greater than or equal to -30% and no if not.

Examples with answers:
> print(dat)
                               given.smiles  discrete.label
1  CO[C@H]1O[C@H](CS(=O)(=O)C[C@H]2O[C@H](OC)[C@H](O)[C@@H](O)[C@H]2O)[C@@H](O)[C@H](O)[C@@H]1O              no
2  CO[C@@H]1O[C@H](CS(=O)(=O)C[C@H]2O[C@@H](OC)[C@H](O)[C@H](O)[C@@H]2O)[C@@H](O)[C@@H](O)[C@H]1O              no
3  CO[C@H]1O[C@H](CS(=O)(=O)C[C@H]2O[C@H](OC)[C@H](O)[C@@H](O)[C@@H]2O)[C@@H](O)[C@H](O)[C@@H]1O              no

Next item in the queue.
Ask | Please check the record `CO[C@H]1O[C@H](CS(=O)(=O)C[C@H]2O[C@H](OC)[C@H](O)[C@@H](O)[C@@H]2O)[C@@H](O)[C@H](O)[C@H]1O` and state if its Activity is at or above -30%.
Reply | yes
